This collection of values is drawn from PubChem BioAssay AID1963966.

Tested on: 935938-334-R-J1-PDC spheroids with HUVEC/MSC, viability
Experiment: Anticancer human tumor 935938-334-R-J1-PDC patient-derived small intestine adenocarcinoma cell line growth inhibition [PI3K]
Details: second compound 0.1 µM; first compound 0.1 µM; hits give low values
PARAMETER: viability, T/C (%)
Kindly provide the numeric value in % only, without the unit symbol.

1. C=CC(=O)N1CCN(c2nc(=O)n(-c3c(C)ccnc3C(C)C)c3nc(-c4c(O)cccc4F)c(F)cc23)C(C)C1 (stereo not given) + COc1c(OCCCN2CCOCC2)ccc2c3n(c(=NC(=O)c4cnc(N)nc4)nc12)CCN3	47.5

Problem: Specify viability, T/C for CC(C)NCC(C(=O)N1CCN(c2ncnc3c2C(C)CC3O)CC1)c1ccc(Cl)cc1 (stereo not given) + CC(Nc1ccc2c(c1)OCCn1cc(N3C(=O)OCC3C(F)F)nc1-2)C(N)=O , system 935938-334-R-J1-PDC spheroids with HUVEC/MSC, viability.
Solution: 84.1

Problem: Specify viability, T/C for Cn1ncnc1[C@H]1c2n[nH]c(=O)c3cc(F)cc(c23)N[C@@H]1c1ccc(F)cc1 + CC(Nc1ncnc2nc[nH]c12)c1cc2cccc(Cl)c2c(=O)n1-c1ccccc1 , system 935938-334-R-J1-PDC spheroids with HUVEC/MSC, viability.
Solution: 88.1

Problem: Specify viability, T/C for C#Cc1c(F)ccc2cc(O)cc(-c3ncc4c(N5CC6CCC(C5)N6)nc(OCC56CCCN5CC(F)C6)nc4c3F)c12 (stereo not given) + CC(Nc1ccc2c(c1)OCCn1cc(N3C(=O)OCC3C(F)F)nc1-2)C(N)=O , system 935938-334-R-J1-PDC spheroids with HUVEC/MSC, viability.
Solution: 84.1

Problem: Specify viability, T/C for CNC(=O)c1ccc(N2C(=S)N(c3ccc(C#N)c(C(F)(F)F)c3)C(=O)C2(C)C)cc1F + CC(Nc1ccc2c(c1)OCCn1cc(N3C(=O)OCC3C(F)F)nc1-2)C(N)=O , system 935938-334-R-J1-PDC spheroids with HUVEC/MSC, viability.
Solution: 99.4

----------
System: 935938-334-R-J1-PDC spheroids with HUVEC/MSC, viability
Experiment: Anticancer human tumor 935938-334-R-J1-PDC cell line growth inhibition [PI3K];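 further: compound exposure lasted seven days before viability was read; percent of vehicle DMSO treated spheroid viability so 100% = untreated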
Conditions: second compound 0.1 µM; first compound 0.1 µM; hits give low values
PARAMETER: viability, T/C (%)
Kindly provide the numeric value in % only, without the unit symbol.

1) CNC(=O)c1ccc(N2C(=S)N(c3ccc(C#N)c(C(F)(F)F)c3)C(=O)C2(C)C)cc1F + CC(Nc1ncnc2nc[nH]c12)c1cc2cccc(Cl)c2c(=O)n1-c1ccccc1	84.4
2) CC(C)n1nc(-c2ccc3oc(N)nc3c2)c2c(N)ncnc21 + CC(Nc1ncnc2nc[nH]c12)c1cc2cccc(Cl)c2c(=O)n1-c1ccccc1	62
3) CC(C)n1nc(-c2ccc3oc(N)nc3c2)c2c(N)ncnc21 + COc1c(OCCCN2CCOCC2)ccc2c3n(c(=NC(=O)c4cnc(N)nc4)nc12)CCN3	34.8

Problem: Give the reported value of viability, T/C for this record: CC1(C)CCC(CN2CCN(c3ccc(C(=O)NS(=O)(=O)c4ccc(NCC5CCOCC5)c([N+](=O)[O-])c4)c(Oc4cnc5[nH]ccc5c4)c3)CC2)=C(c2ccc(Cl)cc2)C1 + CC(Nc1ncnc2nc[nH]c12)c1cc2cccc(Cl)c2c(=O)n1-c1ccccc1
Solution: 104

Problem: Give the reported value of viability, T/C for this record: C#Cc1c(F)ccc2cc(O)cc(-c3ncc4c(N5CC6CCC(C5)N6)nc(OCC56CCCN5CC(F)C6)nc4c3F)c12 (stereo not given) + CC(Nc1ncnc2nc[nH]c12)c1cc2cccc(Cl)c2c(=O)n1-c1ccccc1
Solution: 97
